Test system: HeLa cells
Assay: in vitro
Format: cell-based
Details: human, 8 h
Field: CC50. Provide a value for each of the compounds that follow.

Input line: Name the recorded CC50 for CCCCCC/C=C1/C(=O)C=CC1C (stereo not drawn) .
Output line: 234 µM

Input line: Name the recorded CC50 for CC(C)(C)OC(=O)NC1C=CC(=O)/C1=C/c1ccc(Cl)cc1 (stereo not drawn) .
Output line: > 800 µM

Input line: Name the recorded CC50 for CC(C)(C)OC(=O)NC1C=CC(=O)C1 (stereo not drawn) .
Output line: > 800 µM

Input line: Name the recorded CC50 for CCCCC1C=CC(=O)/C1=C/C(C)C (stereo not drawn) .
Output line: 506 µM

Input line: Name the recorded CC50 for CCCCC1C=CC(=O)/C1=C/CC(C)C (stereo not drawn) .
Output line: 227 µM

Input line: Name the recorded CC50 for CC(C)/C=C1/C(=O)C=C[C@H]1NC(=O)OC(C)(C)C .
Output line: > 800 µM

Input line: Name the recorded CC50 for CC(C)/C=C1/C(=O)C=CC1NC(=O)OC(C)(C)C (stereo not drawn) .
Output line: > 800 µM

Input line: Name the recorded CC50 for CCCCC/C=C1/C(=O)C=CC1C (stereo not drawn) .
Output line: > 800 µM

Input line: Name the recorded CC50 for CC(C)/C=C1/C(=O)C=CC1C (stereo not drawn) .
Output line: > 800 µM

Input line: Name the recorded CC50 for CC(C)/C=C1/C(=O)C=C[C@@H]1NC(=O)OC(C)(C)C .
Output line: > 800 µM

Input line: Name the recorded CC50 for COC(=O)[C@H](CSC1CC(=O)/C(=C/C(C)C)C1C)NC(=O)OC(C)(C)C (stereo partly drawn) .
Output line: > 800 µM

Input line: Name the recorded CC50 for O=C1C=CC(Nc2ccccc2)C1 (stereo not drawn) .
Output line: > 800 µM

Input line: Name the recorded CC50 for CC1C=CC(=O)/C1=C/c1ccccc1 (stereo not drawn) .
Output line: 314 µM

Input line: Name the recorded CC50 for CC(C)(C)OC(=O)NC1C=CC(=O)/C1=C/c1ccccc1 (stereo not drawn) .
Output line: > 800 µM

Input line: Name the recorded CC50 for CCCCC1C=CC(=O)/C1=C/C1CC1 (stereo not drawn) .
Output line: 239 µM
